# method: Repeated-dose intravenous toxicity in SD rats, four weeks with four-week recovery
# Type: in vivo, rat
# test.context: in vivo, iv; SD rat, i.v. once daily, 28 days, recovery 29 days; 200, 400, 600 mg/kg; injectable breviscapine made from Example 1; read-out: no observed adverse effect level (NOAEL)
quantity: NOAEL at 672 h (mg/kg)
Response body: numeric value in mg/kg, unit text excluded.

Challenge: Write down NOAEL at 672 h measured for item O=C(O)[C@H]1O[C@@H](Oc2cc3oc(-c4ccc(O)cc4)cc(=O)c3c(O)c2O)[C@H](O)[C@@H](O)[C@@H]1O [实施例1]
Response given: 200

* * *

# method: Repeated-dose intravenous toxicity in Beagle dogs, four weeks with four-week recovery
# Assay type: in vivo, dog
# test.context: in vivo, iv; Beagle dog, i.v. once daily, 28 days, recovery 28 days; 25, 50, 100 mg/kg; injectable breviscapine made from Example 1; read-out: no observed adverse effect level (NOAEL)
quantity: NOAEL at 672 h (mg/kg)
Supply the numeric figure in mg/kg, leaving out any unit text.

Challenge: Specify reported NOAEL at 672 h for the molecule shown: O=C(O)[C@H]1O[C@@H](Oc2cc3oc(-c4ccc(O)cc4)cc(=O)c3c(O)c2O)[C@H](O)[C@@H](O)[C@@H]1O [实施例1]
Response given: 25
